Source: ChEMBL document CHEMBL1149534

target_system: UniProtKB P07550
Sequence (P07550 whole entry): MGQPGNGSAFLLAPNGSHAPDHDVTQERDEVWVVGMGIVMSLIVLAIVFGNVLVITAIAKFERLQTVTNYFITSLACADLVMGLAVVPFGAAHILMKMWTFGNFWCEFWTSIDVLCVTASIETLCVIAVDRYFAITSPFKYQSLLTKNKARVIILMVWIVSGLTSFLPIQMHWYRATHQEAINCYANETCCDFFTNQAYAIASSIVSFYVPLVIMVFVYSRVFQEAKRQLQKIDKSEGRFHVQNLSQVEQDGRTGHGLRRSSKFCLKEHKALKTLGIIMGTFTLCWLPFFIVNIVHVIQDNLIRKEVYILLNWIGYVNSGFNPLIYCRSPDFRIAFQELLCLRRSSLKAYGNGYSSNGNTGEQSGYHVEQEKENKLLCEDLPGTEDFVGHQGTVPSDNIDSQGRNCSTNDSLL

{"smiles_str": "O=[N+]([O-])c1cc(O)c2c(c1)S(=O)(=O)N=C(Nc1ccccc1Oc1ccccc1)N2", "IC50": "> 25 µM"}

###

assay_name: Volume of distribution at steady state in rat at 1.6 mg/kg, iv and 3.2 mg/kg, po
Format: ADME, organism-based
experimental_setup: in vivo, read-out: Vdss
measurement_type: Vd (L/kg)

{"smiles_str": "O=[N+]([O-])c1cc(O)c2c(c1)S(=O)(=O)N=C(Nc1ccccc1Cl)N2", "measurement_type": "Vd", "readout_number": 0.53}
